target: human JAK2 (Homo sapiens, UniProt O60674); test: Method 1 (JAK2): Amplified Luminescent Proximity Assay (Alphascreen); assay type: biochemical; design: His6 (C); purchased Upstate Biotechnology; host or cells: baculovirus in Sf21 cells; details: 150 pM JAK2 enzyme, 5 mM ATP, 60 minutes, room temperature, read-out: IC50 (JAK inhibitory activity, Method 1 (JAK2))
Sequence (O60674 808-1132 limits assumed): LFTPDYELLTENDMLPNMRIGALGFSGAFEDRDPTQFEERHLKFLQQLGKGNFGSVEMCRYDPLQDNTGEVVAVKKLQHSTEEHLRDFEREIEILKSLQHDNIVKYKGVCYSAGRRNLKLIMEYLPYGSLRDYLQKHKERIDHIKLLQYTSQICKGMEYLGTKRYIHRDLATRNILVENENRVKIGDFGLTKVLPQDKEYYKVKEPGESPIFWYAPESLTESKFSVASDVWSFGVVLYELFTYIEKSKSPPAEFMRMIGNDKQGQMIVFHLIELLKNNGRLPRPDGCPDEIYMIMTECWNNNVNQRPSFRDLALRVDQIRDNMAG
pIC50: −log10 of the molar value.
experimental endpoint: pIC50

A = C[C@H](Nc1nc(Nc2c[nH]cn2)nc(N2CCOCC2)n1)c1ncc(F)cn1 [Example 23]
B = C[C@H](Nc1nc(Nc2cn(C)cn2)nc(N2CCOC[C@H]2CO)n1)c1ncc(F)cc1F [Example 22]
C = C[C@H](Nc1nc(Nc2cn(C3CC3)cn2)nc(N2CCOCC2)n1)c1ncc(F)cn1 [Example 32]
D = COC1CN(c2nc(Nc3cn(C)cn3)nc(N[C@@H](C)c3ncc(F)cn3)n2)C1 [Example 20]
Qu. Hey, quick one: sort these by pIC50, largest value first please. // format: requested-order list of labels
Ans. B, D, A, C

###

target: human JAK2 (Homo sapiens, UniProt O60674); experiment: Method 3 (JAK2): mobility shift assay on Caliper LC3000 reader, 15 μM ATP; format: biochemical; set-up: human JAK2 (amino acids 831-1132, PLAZA database pAZB0359) expressed in insect cells; GST (N); made in house; host or cells: insect cells; conditions: 0.5 nM JAK2 enzyme, 90 minutes, read-out: IC50 (JAK inhibitory activity, Method 3 (JAK2))
Sequence (O60674 831-1132): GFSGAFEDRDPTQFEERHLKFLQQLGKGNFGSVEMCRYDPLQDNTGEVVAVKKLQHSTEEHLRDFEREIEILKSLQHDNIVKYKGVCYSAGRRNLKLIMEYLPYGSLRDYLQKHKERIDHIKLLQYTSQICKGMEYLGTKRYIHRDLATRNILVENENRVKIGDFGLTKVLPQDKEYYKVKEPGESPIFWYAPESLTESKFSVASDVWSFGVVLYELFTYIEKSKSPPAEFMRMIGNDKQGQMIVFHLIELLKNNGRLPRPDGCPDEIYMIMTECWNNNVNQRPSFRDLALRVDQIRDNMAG
pIC50: −log10 of the molar value.
experimental endpoint: pIC50

[
  {
    "compound": "[2H]C([2H])([2H])n1cnc(Nc2nc(NC(C)c3ncc(F)cc3F)nc(N3CCOCC3)n2)c1 (single isomer, unassigned) [Example 12a]",
    "pIC50": 6.86
  },
  {
    "compound": "[2H]C([2H])([2H])n1cnc(Nc2nc(NC(C)c3ncc(F)cc3F)nc(N3C([2H])([2H])C([2H])([2H])OC([2H])([2H])C3([2H])[2H])n2)c1 (single isomer, unassigned) [Example 13a]",
    "pIC50": 6.74
  }
]

###

Quick record: IC50, JAK1 (Homo sapiens, UniProt P23458).
experimental endpoint: IC50 (nM)

Before answering, review these 4 worked examples.
[
  {
    "compound": "[2H]C1([2H])OC([2H])([2H])C([2H])([2H])N(c2nc(Nc3cn(C)cn3)nc(NC(C)c3ncc(F)cc3F)n2)C1([2H])[2H] (single isomer, unassigned) [Example 11a]",
    "experimental endpoint": "IC50",
    "value reported": 780
  },
  {
    "compound": "[2H]C1([2H])OC([2H])([2H])C([2H])([2H])N(c2nc(Nc3cn(C)cn3)nc(NC(C)c3ncc(F)cc3F)n2)C1([2H])[2H] (single isomer, unassigned) [Example 11b]",
    "experimental endpoint": "IC50",
    "value reported": 15
  },
  {
    "compound": "C[C@H](Nc1nc(Nc2cn(C)cn2)nc(N2CCOCC2)n1)c1ccc(Cl)cc1",
    "experimental endpoint": "IC50",
    "value reported": 510
  },
  {
    "compound": "Cn1cnc(Nc2nc(NC(CNC(=O)OC(C)(C)C)c3ccc(F)cc3)nc(N3CCOCC3)n2)c1 (single isomer, unassigned) [Example 24b]",
    "experimental endpoint": "IC50",
    "value reported": 1020
  }
]

a = Cn1cnc(Nc2nc(NC(c3ccc(F)cc3)c3nccn3C)nc(N3CCOCC3)n2)c1 (single isomer, unassigned) [Example 25b]
b = Cn1cnc(Nc2nc(NC(CNC(=O)OC(C)(C)C)c3ccc(F)cc3)nc(N3CCOCC3)n2)c1 (single isomer, unassigned) [Example 24a]
Qu. Smaller IC50 value? Options are a and b Kindly give the label for the entry you pick.
Ans. b
